# tested.target: MAGI1_2, Q96QZ7
# Sequence (Q96QZ7 456-580): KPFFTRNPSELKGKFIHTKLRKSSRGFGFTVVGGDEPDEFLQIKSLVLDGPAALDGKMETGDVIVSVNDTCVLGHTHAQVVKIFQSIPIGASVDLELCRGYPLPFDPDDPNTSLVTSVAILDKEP
# protocol.description: holdup assay
# Parameters: key: below the threshold = too weak to quantify, mostly under pKd 3.1 to 4
# condition.parameters: plain residues with an end cap or a label only (N-terminal biotin on a linker: ado-ado)
assay.endpoint: pKd

Here are 5 binders together with their reported answers.
binder: QHKTQLQTLI [BPIFA2, Q96DR5]
pKd: 4.32
--
binder: TASPAKETSF [SLC2A7, Q6PXP3]
pKd: below the threshold
--
binder: SKENVQETQI [LRRC4B, Q9NT99]
pKd: below the threshold
--
binder: LGRSTPQSEV [DGKH, Q86XP1]
pKd: below the threshold
--
binder: DDENIRTSDV [PLEKHA2, Q9HB19]
pKd: below the threshold

Inquiry: Give pKd for SSALYGESDL [ACTN2, P35609]
Reply text: below the threshold

Inquiry: Give pKd for VYPNAKVELV [PDLIM4_iso2, P50479;P50479-1]
Reply text: below the threshold

Inquiry: Give pKd for RRISSLESEV [GRIN2C, Q14957]
Reply text: 4.05
